These measurements were taken from PubChem BioAssay (Tox21).

experimental_system: Cytochrome P450 1A2 (Homo sapiens) (UniProt P05177)
Sequence (P05177 whole entry, looked up): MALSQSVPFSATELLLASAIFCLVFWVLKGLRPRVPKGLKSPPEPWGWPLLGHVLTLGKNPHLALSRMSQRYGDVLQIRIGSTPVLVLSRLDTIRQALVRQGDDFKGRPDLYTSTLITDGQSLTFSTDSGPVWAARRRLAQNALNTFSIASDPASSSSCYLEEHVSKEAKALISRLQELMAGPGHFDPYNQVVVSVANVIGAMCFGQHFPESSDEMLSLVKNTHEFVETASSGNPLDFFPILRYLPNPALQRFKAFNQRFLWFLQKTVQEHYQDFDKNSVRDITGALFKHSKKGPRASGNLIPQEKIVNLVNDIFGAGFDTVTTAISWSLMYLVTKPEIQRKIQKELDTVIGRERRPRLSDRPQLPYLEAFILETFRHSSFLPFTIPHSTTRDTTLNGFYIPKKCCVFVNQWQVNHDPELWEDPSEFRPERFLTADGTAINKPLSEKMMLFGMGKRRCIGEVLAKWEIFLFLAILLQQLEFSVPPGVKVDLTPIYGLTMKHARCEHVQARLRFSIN
assay_protocol: Cytochrome P450 Family 1 Subfamily A Member 2 (CYP1A2) small molecule antagonists: luciferase reporter qHTS assay (AID 1671199); note: nearly all actives have a fitted effect of over 50% in size
measurement_conditions: P450-Glo CYP1A2 enzyme, luciferin luminescence, 1 h; series mostly up to 115 µM
Excerpt: National Center for Advancing Translational Sciences [NCATS] U.S. Environmental Protection Agency [EPA] National Institutes of Environmental Health Sciences [NIEHS] National Toxicology Program [NTP] U.S. Food and Drug Administration [FDA] Cytochrome P450 (CYP) enzymes are membrane-bound hemeproteins that play a key role in metabolism of drugs and xenobiotics. […] The luciferin products formed are detected with a luciferin detection reagent, and the amount of light produced is proportional to CYP activity. […]
Inconclusive results are not listed. The source made the active and inactive calls. Calls come from the whole dose curve; as a rule, active = well fitted inhibition curve with a large enough effect in the repeat runs; inconclusive = weak or mixed curves; inactive = no such curve, though single readings can be large or run the other way.
Respond using exactly one of the listed classes: yes = active, no = inactive

Task item: Hi team, can someone confirm the assay call for `CC(=O)C(C)(C)C` ?
Reply: yes

Task item: What call does the record list for CCOP(=S)(Oc1ccc([N+](=O)[O-])cc1)c1ccccc1 (stereo unspecified) ?
Reply: yes

Task item: What classification did `O=Cc1ccc2c(c1)OCO2` end up with in this test?
Reply: yes

====

assay_protocol: A CellTox Green Cytotoxicity Assay to monitor cytotoxicity in HEK293 cells - 24 hour (AID 1224875); note: nearly all actives have a fitted effect of over 45% in size
measurement_conditions: CellTox Green fluorescence; series mostly up to 76.8 µM
Records with an inconclusive call do not appear. Activity calls are given as the source filed them. Calls come from the whole dose curve; as a rule, active = well fitted activation curve with a large enough effect in the repeat runs; inconclusive = weak or mixed curves; inactive = flat fitted curve, though single readings scatter.
assay_readout: outcome

# count of solved cases: 6
compound | outcome
C=CC(=O)OCC(C)O (stereo not given) | inactive
COc1nn(CSP(=S)(OC)OC)c(=O)s1 | inactive
O=Cc1ccc(Cl)cc1Cl | inactive
O=C(O)C(F)(F)C(F)(F)C(F)(F)C(F)(F)C(F)(F)C(F)(F)C(F)(F)C(F)(F)C(F)(F)C(F)(F)F | inactive
Cc1ccc2ccccc2c1 | inactive
Nc1nc(=S)[nH][nH]1 | inactive

Looking up `CC1(C)[C@H](C=C(Cl)Cl)[C@@H]1C(=O)O[C@@H](C#N)c1cccc(Oc2ccccc2)c1` , I see its outcome listed as inactive

Entry under test: `Clc1cccc(SC2CCNCC2)n1` . Its outcome was inactive

In plain terms, `CCOC(=O)[C@]1(c2ccccc2)Oc2ccccc2[C@@H]1N` has a documented outcome of inactive

====

assay_protocol: qHTS assay to identify small molecule antagonists of the estrogen related receptor signaling pathway with the pleiotropic PPARgamma coactivator (PGC) from Tox21 10K library (AID 1224841); note: actives are mostly falling curves and most rising ones were filed inactive; nearly all actives have a fitted effect of over 50% in size
measurement_conditions: PGC/ERR reporter cell line, ONE-Glo luciferase, 18 h; series mostly up to 92.4 µM
Records with an inconclusive call do not appear. Activity calls are given as the source filed them. The rule behind the calls is not given here.
Outcome field: choose from TRUE = active, FALSE = inactive

Take a look at these entries with their results.
molecule | category
O=C(Nc1ccccc1)Nc1cnns1 | FALSE
Cc1ccc2ccccc2c1 | FALSE
O=[N+]([O-])c1ccc(F)c([N+](=O)[O-])c1 | TRUE
C[C@H]1CNCCc2ccc(Cl)cc21 | FALSE
COc1nn(C(=O)NS(=O)(=O)c2ccccc2OC(F)(F)F)c(=O)n1C | FALSE
CCCCOC(=O)c1ccccc1C(=O)OCc1ccccc1 | FALSE
O=[N+]([O-])C(Br)(CO)CO | FALSE
CCC(Cl)CCl (stereo unspecified) | FALSE
O=C(N[C@H](c1ccccc1)[C@@H]1CN2CCC1CC2)c1c(Cl)ccc(C(F)(F)F)c1Cl | TRUE
Brc1ccc(Oc2ccccc2)cc1 | FALSE

Task item: Record request — test call for `O=C1NCN(c2ccccc2)C12CCN(CCCOc1ccc(F)cc1)CC2`
Reply: FALSE

Task item: Status in this test for O=C(O)CC(Cl)C(=O)O (stereo unspecified) ?
Reply: FALSE

Task item: For this molecule, state the assay outcome: `CC(=O)[C@H]1CC[C@H]2[C@@H]3CC[C@H]4C[C@](C)(O)CC[C@]4(C)[C@H]3CC[C@]12C`
Reply: FALSE

Task item: Status in this test for COP(=S)(Oc1cc(Cl)c(Br)cc1Cl)c1ccccc1 (stereo unspecified) ?
Reply: TRUE

Task item: Which outcome did this test record for the molecule `CC(C)N(C(=O)COc1nnc(C(F)(F)F)s1)c1ccc(F)cc1` ?
Reply: TRUE

Task item: Just curious, what result did `ClCc1cccc(Cl)c1` get here?
Reply: FALSE

====

assay_protocol: A CellTox Green Cytotoxicity Assay to monitor cytotoxicity in HepG2 cells - 16 hour (AID 1224876); note: nearly all actives have a fitted effect of over 45% in size
measurement_conditions: CellTox Green fluorescence; series mostly up to 76.8 µM
Inconclusive results are not listed. The source made the active and inactive calls. The call rests on the fitted dose curve; in most records, active means well fitted activation curve with a large enough effect in the repeat runs; inconclusive means weak or mixed curves; inactive means flat fitted curve, though single readings scatter.
assay_readout: outcome

compound | result
CC(C)N(CCC(C(N)=O)(c1ccccc1)c1ccccn1)C(C)C (stereo not given) | inactive
CCCCN=C=O | inactive
O=NN1CCCCCC1 | inactive
Clc1ccc(C2(Cn3cncn3)CC(Br)CO2)c(Cl)c1 (stereo not given) | inactive
ClP(Cl)(Cl)(Cl)Cl | inactive
CN1C(=O)C(O)N=C(c2ccccc2)c2cc(Cl)ccc21 (stereo not given) | inactive

Could you now look at the following compound, please?
Summary for this compound, CC1Sc2c(C(=O)O)c(=O)c3cc(F)c(N4CCNCC4)cc3n21 (stereo not given) : outcome is inactive

====

experimental_system: Cytochrome P450 2C19 (Homo sapiens)
assay_protocol: Cytochrome P450 Family 2 Subfamily C Member 19 (CYP2C19) small molecule antagonists: luciferase reporter qHTS assay (AID 1671197); note: nearly all actives have a fitted effect of over 65% in size
measurement_conditions: P450-Glo CYP2C19 enzyme, luciferin luminescence, 1 h; series mostly up to 115 µM
Records with an inconclusive call do not appear. Activity calls are given as the source filed them. Calls follow the shape of the dose curve; as a rule, active = well fitted inhibition curve with a large enough effect in the repeat runs; inconclusive = weak or mixed curves; inactive = no such curve, though single readings can be large or run the other way.
API: response.call in active, inactive

molecule | category
CCC(Br)(CC)C(=O)NC(N)=O | inactive
C/C=C/C=O | active

Task item: Recorded call for `Cc1ccccc1C(=O)Nc1cccc(OC(C)C)c1` ?
Reply: active

====

assay_protocol: qHTS assay to identify small molecule agonists of the estrogen receptor beta (ER-beta) signaling pathway - cell viability counter screen (AID 1259380); note: nearly all actives have a fitted effect of over 30% in size
measurement_conditions: ER-beta-bla HEK293T viability, CellTiter-Glo luminescence, 16 h; series mostly up to 92.4 µM
Inconclusive results are not listed. Calls of active or inactive are those of the source. Calls follow the shape of the dose curve; as a rule, active = well fitted cell-killing curve with a large enough effect in the repeat runs; inconclusive = weak or mixed curves, or effect the other way; inactive = flat fitted curve, though single readings scatter.
Give one outcome, nothing more. List: yes = active, no = inactive

# example entries with known answers
compound | category
CCN(C)N=O | no
Cc1cc(=O)[nH]o1 | no

Task item: Please share the test call associated with `O=C=Nc1ccc(Cl)cc1` .
Reply: yes

Task item: Field: outcome | Entry: `CCBr`
Reply: no

Task item: Given `CCCCCCC#N` , state the outcome it received in this test.
Reply: no

Task item: What outcome does the record of this test show for `COC(C)(C)CCC[C@H](C)C/C=C/C(C)=C/C(=O)OC(C)C` ?
Reply: no

====

assay_protocol: A CellTox Green Cytotoxicity Assay to monitor cytotoxicity in HEK293 cells - 24 hour (AID 1224875); note: nearly all actives have a fitted effect of over 45% in size
measurement_conditions: CellTox Green fluorescence; series mostly up to 76.8 µM
Inconclusive results are not listed. Calls of active or inactive are those of the source. Calls follow the shape of the dose curve; as a rule, active = well fitted activation curve with a large enough effect in the repeat runs; inconclusive = weak or mixed curves; inactive = flat fitted curve, though single readings scatter.

compound | outcome
O=C(CBr)OCc1ccccc1 | inactive
CN1C(=O)NC(=O)C(C)(C2=CCCCC2)C1=O (stereo not drawn) | inactive
CCCCCCCCCC(=O)O[C@H]1CC[C@H]2[C@@H]3CCC4=CC(=O)CC[C@@H]4[C@H]3CC[C@]12C | inactive

====

assay_protocol: qHTS assay to identify small molecule antagonists of the peroxisome proliferator-activated receptor gamma (PPARg) signaling pathway - cell viability counter screen (AID 743194); note: nearly all actives have a fitted effect of over 55% in size
measurement_conditions: PPARg-bla HEK293H viability, CellTiter-Glo luminescence, 17 h; co-treated with 50 nM rosiglitazone; series mostly up to 62.6 µM
Records with an inconclusive call do not appear. Calls of active or inactive are those of the source. Calls follow the shape of the dose curve; as a rule, active = well fitted cell-killing curve with a large enough effect in the repeat runs; inconclusive = weak or mixed curves, or effect the other way; inactive = no such curve, though single readings can be large or run the other way.

chemical_string | outcome
N#CCC#N | inactive
CCCCCCCCCC(=O)O[C@H]1CC[C@H]2[C@@H]3CCC4=CC(=O)CC[C@@H]4[C@H]3CC[C@]12C | inactive
C=C(C#N)CCC#N | inactive

====

assay_protocol: Human pregnane X receptor (PXR) small molecule agonists, qHTS cell viability counter screen (AID 1346977); note: nearly all actives have a fitted effect of over 50% in size
measurement_conditions: PXR-Luc HepG2 viability, CellTiter-Fluor, 24 h; series mostly up to 92.4 µM
Records with an inconclusive call do not appear. Activity calls are given as the source filed them. Calls follow the shape of the dose curve; as a rule, active = well fitted cell-killing curve with a large enough effect in the repeat runs; inconclusive = weak or mixed curves, or effect the other way; inactive = flat fitted curve, though single readings scatter.
Answer with one of the outcomes active, inactive

Take a look at these entries with their results.
compound | category
C[C@H]1CNCCc2ccc(Cl)cc21 | inactive
Cc1cc(=O)[nH]o1 | inactive
CC(C)N(C(=O)COc1nnc(C(F)(F)F)s1)c1ccc(F)cc1 | inactive
O=C(C(Cl)(Cl)Cl)C(Cl)(Cl)Cl | inactive
COc1nn(CSP(=S)(OC)OC)c(=O)s1 | inactive
IC(I)=C(I)I | active
ClCC(Br)CBr (stereo unspecified) | inactive
CC(C)N(CCC(C(N)=O)(c1ccccc1)c1ccccn1)C(C)C (stereo unspecified) | inactive

Task item: Outcome? `COC(N)=O`
Reply: inactive
